Measured EC50 by item
# tested-system: UniProt Q14833
# assay-overview: mGluR4 potentiation assay (EC50 for potentiation at EC20 agonist; fluorometric plate reader, Ca2+ or thallium dye)
# conditions-used: potentiation of mGluR4; species of receptor not given
Number in nM, nothing else.

// solved cases for EC50 follow
compound="CCCC(C)c1noc2cc(Nc3n[nH]c4ncccc34)ccc12 (centres unmarked)" measured=673
compound=c1cnc2c(Nc3ccc4c(C5CCCC5)noc4c3)n[nH]c2n1 measured=527
compound=c1cnc2c(Nc3ccc4c(C5CCCC5)noc4c3)n[nH]c2c1 measured=523

Now consider the entry below.
# input Answer with reported EC50 of CC(C)(C)CNCc1noc2cc(Nc3n[nH]c4cccnc34)ccc12
# output 539

* * *

# tested-system: mGluR4 (UniProt Q14833)
# assay-overview: mGluR4 potentiation assay (EC50 for potentiation at EC20 agonist; fluorometric plate reader, Ca2+ or thallium dye)
# conditions-used: potentiation of mGluR4; species of receptor not given
pEC50: −log10 of the molar value.
assay-metric: pEC50

// solved cases for pEC50 follow
compound="c1cncc(OCc2noc3cc(Nc4n[nH]c5cccnc45)ccc23)c1 [Example 169]" tested_system="mGluR4 (UniProt Q14833)" measured="< 4.52"
compound="CCCCC(F)(F)c1noc2cc(Nc3n[nH]c4cccnc34)ccc12 [Example 136]" tested_system="mGluR4 (UniProt Q14833)" measured="< 5.00"
compound="CC(c1ccc(=O)[nH]c1)c1noc2cc(Nc3n[nH]c4cccnc34)ccc12 (stereo not shown) [Example 139]" tested_system="mGluR4 (UniProt Q14833)" measured="< 5.00"

# input Answer with reported pEC50 of CC(C)Cc1noc2cc(Nc3n[nH]c4ccccc34)ccc12 [Example 10]
# output < 5.00
